# Assay info: antiproliferative effect on LL 47 fibroblasts – human, LL 47 cells, CellTiter-Glo luminescence, primary screen (AID 719);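 further: compound exposure lasted 72 h before the ATP readout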
# Condition notes: LL 47 human lung fibroblast viability, ATP luminescence; at 10 µM; hits give low values
Out of some 85,000 compounds screened, about 940 (1.1%) were called active. Only a selection was taken, and actives are over-represented in it overall.
Please note: viability exactly at 90% is n. Only values below 90% get y.

> print(dat)
                                    compound  label
 1  Cc1cc(SCC(=O)c2ccccc2)nc(SCC(=O)c2ccccc2)n1      n
 2  CCOc1ccccc1NC(=O)C1CCCN(C(=O)Nc2ccccc2)C1 (stereo not given)      n
 3    CCCc1nc2sc3c(c2c(=O)n1NC(=O)CCCl)CCCC3      y
 4                  c1ccc(-n2nc3ccccc3n2)cc1      n
 5  CCCn1c(C(Cc2ccccc2)NC(=O)COC)nc2ccccc21 (stereo not given)      n
 6  COC(=O)CSc1nc2c(c(C3CC=CCC3)c1C#N)CCC2 (stereo not given)      n
 7  CCn1c(/C=C/c2ccc([N+](=O)[O-])o2)nc2ccccc2c1=O      y
 8             Cc1nc2ccccc2c(=O)n1CCCn1ccnc1      n
 9        COc1ccc(N2CCN(Cc3ccc(Br)s3)CC2)cc1      n
10  Cc1cccc(NC(=O)Nc2cccc(Oc3c(F)c(F)c(F)c(F)c3F)c2)c1      y
11       COC(=O)Nc1nc2ccc(Sc3ccccc3)cc2[nH]1      y
12  COC(=O)c1cc2nc(-c3ccccc3)cc(C(F)(F)F)n2n1      n
13  Cc1cc(C(=O)OC(C)C(=O)Nc2cccc(S(=O)(=O)N3CCOCC3)c2)c(C)o1 (stereo not given)      y
14  COc1ccc(Br)cc1CN1CCN(C(=O)c2cccc(OC)c2OC)CC1      n
15  Cc1cccc2nc(CSc3nc4[nH]ncc4c(=O)n3-c3cccc(Cl)c3)cc(=O)n12      y
16  O=C(CN1CCCCCC1)N1c2ccccc2Sc2ccc(C(F)(F)F)cc21      n
17             CC(C)c1nc2ccc(C(=O)O)cc2[nH]1      n
18  COc1ccc(NC(=O)/C(Cl)=C(/Cl)S(=O)Cc2ccc(C)cc2)cn1 (stereo not given)      y
19  O=C(C(NS(=O)(=O)c1cccc2nsnc12)c1ccccc1)N1CCN(c2ccccc2)CC1 (stereo not given)      n
20      CCC(=O)Nc1sc(C(=O)N2CCCCC2)c(C)c1C#N      n
21  CN1CCN(CC(=O)Nc2sc3c(c2C#N)CCC(C(C)(C)C)C3)CC1 (stereo not given)      y
22  CN1CCN(CCCNC(=O)c2cc3c(=O)oc4ccccc4c3s2)CC1      n
23   Cc1cc(O)cc(O)c1C(=O)Cc1cnn(-c2ccccc2)c1      n
24         Cc1ccoc1C(=O)Nc1cccc(Oc2ccccc2)c1      n
25  CCOC(=O)CSc1nnc(CNC(=O)c2ccco2)n1-c1ccc(F)cc1      n
26  CCCCC(C(=O)OCC(=O)c1ccc(OC)cc1)N1C(=O)c2ccccc2C1=O (stereo not given)      n
27     CC1=C/C(=N\OS(=O)(=O)c2ccccc2)C=CC1=O      y
28        CC(=O)c1cccc(NC(=O)Nc2ccc(C)cc2)c1      n
29  Fc1ccc(-n2c(Cc3ccccc3)nnc2SCc2nc(-c3ccc(Cl)cc3)no2)cc1      n
30  COc1ccc(-c2cc(C(F)(F)F)nc(S(C)(=O)=O)n2)cc1OC      y
31  O=C(c1cccc(S(=O)(=O)N2CCOCC2)c1)N1CCOCC1      n
32  CCNC(=O)NC(=O)C(C)OC(=O)c1cc(S(=O)(=O)N2CCCCCC2)ccc1OC (stereo not given)      n
33  COc1cccc(-c2nnc(NC(=O)c3ccc(S(=O)(=O)N(CC(C)C)CC(C)C)cc3)o2)c1      y
34         O=c1c2ccccc2nc(N/N=C/c2ccccc2)n1O      n
35  COCCn1c(SCc2nnc(-c3ccc(OC)c(OC)c3)o2)nc2sc3c(c2c1=O)CCC3      n
36  C=CCn1c(SCc2c(C)noc2C)nc2sc3c(c2c1=O)CCC(C)C3 (stereo not given)      y
37  COc1ccc(C2CC(c3cccs3)=Nc3ccccc3S2)cc1OC (stereo not given)      n
38      COc1ccc(Nc2oc(-c3ccccc3Cl)nc2C#N)cc1      y
39       CCOc1ccc(Nc2oc(Cc3ccccc3)nc2C#N)cc1      n
40  Cc1ccc(-n2c(CNc3ccc(F)cc3)nnc2SCC(=O)N2CCOCC2)cc1      y
41  CC1CN(S(=O)(=O)c2ccccc2)C(C)CN1S(=O)(=O)c1ccccc1 (stereo not given)      n
